Test system: Fibroblast
Assay: Multiplex assay against human fibroblast
Type: toxicity, cell-based
Conditions: 24 h, 1 µM, compound concentration 1 uM, replicate 1
Quick list: Population Healthy Nuclei (%) per entry.
The answer consists of two parts: a number and, after it, its unit.

molecule=N#Cc1c(Oc2cccc(OS(=O)(=O)CCCC(F)(F)F)c2)cccc1C(F)(F)F result=62%
molecule=CCCOc1ccc2[nH]cc(C3=CCNCC3)c2n1.Cl result=76%
molecule=CC(C)c1noc(N2CCC(COc3ccc(-c4ccc(S(C)(=O)=O)cc4)nc3)CC2)n1 result=78%
molecule=CN1CCN(c2cc(-c3ccccc3)nc(N)n2)CC1 result=65%
molecule=CC[C@@H](C)Nc1nc(C)nc2c(-c3ccc(OC)nc3C)c(C)nn12 result=70%

Moving on to the next molecule.
[ask] Bench note: what Population Healthy Nuclei (%) did Br.CS(=O)(=O)Nc1c(O)ccc2c1CCCC2C1=NCCN1 (stereo unspecified) show?
[reply] 77%

* * *

System: U2OS
Assay: Multiplex assay against U2OS
Assay type: toxicity, cell-based
Settings: human, 12 h, 10 µM, compound concentration 10 uM, replicate 2
I would appreciate it if you labelled entries fulfilled when Population Fragmented Nuclei (%) is 20% or higher, otherwise not fulfilled.

compound=COc1cccc2c1c(NS(=O)(=O)c1ccc(Cl)s1)nn2Cc1cccc(CNC(=O)C(C)(C)O)c1 assayed_target=U2OS class_label=fulfilled

[ask] Is Population Fragmented Nuclei (%) at least 20%? Consider Cl.N=C(N)NC(=O)Cc1c(Cl)cccc1Cl [GUANFACINE HYDROCHLORIDE]
[reply] not fulfilled

[ask] Is Population Fragmented Nuclei (%) at least 20%? Consider `COc1ccccc1N1CCN(C[C@@H](C(=O)NC(C)(C)C)c2ccccc2)CC1.Cl.Cl`
[reply] not fulfilled

[ask] Is Population Fragmented Nuclei (%) at least 20%? Consider `O=C1[C@H](Cc2ccc(O)cc2)N2C(=O)CCN(C(=O)NCc3ccccc3)[C@H]2CN1Cc1cccc2ccccc12`
[reply] not fulfilled

[ask] Is Population Fragmented Nuclei (%) at least 20%? Consider `CCCOc1ccc2[nH]cc(C3=CCNCC3)c2n1.Cl`
[reply] not fulfilled

[ask] Is Population Fragmented Nuclei (%) at least 20%? Consider Cc1sc2c(c1C)C(c1ccc(Cl)cc1)=N[C@@H](CC(=O)NCCCCCCCCNC(=O)COc1cccc3c1C(=O)N(C1CCC(=O)NC1=O)C3=O)c1nnc(C)n1-2 (stereo partly drawn)
[reply] not fulfilled

[ask] Is Population Fragmented Nuclei (%) at least 20%? Consider Br.CS(=O)(=O)Nc1c(O)ccc2c1CCCC2C1=NCCN1 (stereo not drawn)
[reply] fulfilled

[ask] Is Population Fragmented Nuclei (%) at least 20%? Consider CCCCCC(O)/C=C/[C@H]1C(=O)CC(O)C1C/C=C\CCCC(=O)O (stereo partly drawn)
[reply] not fulfilled

[ask] Is Population Fragmented Nuclei (%) at least 20%? Consider `N#Cc1c(Oc2cccc(OS(=O)(=O)CCCC(F)(F)F)c2)cccc1C(F)(F)F`
[reply] not fulfilled

[ask] Is Population Fragmented Nuclei (%) at least 20%? Consider Cl.NCCc1ccc(O)c(O)c1 [DOPAMINE HYDROCHLORIDE]
[reply] not fulfilled

[ask] Is Population Fragmented Nuclei (%) at least 20%? Consider `N#Cc1cc(F)cc(-c2nc(-c3ccc(F)cn3)no2)c1`
[reply] not fulfilled

[ask] Is Population Fragmented Nuclei (%) at least 20%? Consider `C[C@H](N)COC(=O)[C@@H](CCCCN)NC(=O)Cc1c(-c2ccc3ccccc3c2)[nH]c2c1ccc1ccccc12`
[reply] fulfilled

[ask] Is Population Fragmented Nuclei (%) at least 20%? Consider COC[C@@H](c1ccc(C(F)(F)F)cc1)N1CCN(C2(C)CCN(C(=O)c3c(C)ncnc3C)CC2)C[C@@H]1C.O=C(O)/C=C\C(=O)O [VICRIVIROC MALEATE]
[reply] fulfilled

[ask] Is Population Fragmented Nuclei (%) at least 20%? Consider `Cc1onc(-c2ccccc2Cl)c1C(=O)N(C)c1ccc(Cl)cc1`
[reply] fulfilled

[ask] Is Population Fragmented Nuclei (%) at least 20%? Consider `Cc1cnc(-c2cc(N3CCN(C(=O)CCS(C)(=O)=O)CC3)ncc2Cl)c(C)c1`
[reply] not fulfilled

[ask] Is Population Fragmented Nuclei (%) at least 20%? Consider CC[C@@H](C)Nc1nc(C)nc2c(-c3ccc(OC)nc3C)c(C)nn12 [PEXACERFONT]
[reply] fulfilled

[ask] Is Population Fragmented Nuclei (%) at least 20%? Consider CC(C)(C)c1cc(NC(=O)Nc2ccc(-c3cn4c(n3)sc3cc(OCCN5CCOCC5)ccc34)cc2)no1 [QUIZARTINIB]
[reply] not fulfilled
